Assay: in vitro
Settings: rat
Description: Ratio of drug level in blood to plasma in rat
quantity_measured: blood plasma ratio
// no unit, no text: just the number

molecule | blood plasma ratio
O=C([O-])Cc1ccccc1Nc1c(Cl)cccc1Cl.[Na+] [DICLOFENAC SODIUM] | 1.57
Cc1ccc(C)c(OCCCC(C)(C)C(=O)O)c1 | 0.83
CCCc1nc2c(C)cc(-c3nc4ccccc4n3C)cc2n1Cc1ccc(-c2ccccc2C(=O)O)cc1 | 1.25
COc1ccc2c(c1)c(CC(=O)O)c(C)n2C(=O)c1ccc(Cl)cc1 | 0.97
O=C1Nc2ccc(Cl)cc2C(c2ccccc2Cl)=NC1O (stereo unspecified) | 1.09

**Q:** Identify blood plasma ratio associated with the molecule COc1c(C)c2c(c(O)c1C/C=C(\C)CCC(=O)O)C(=O)OC2
**A:** 0.94
